assay: Pharmacokinetics of gemcitabine in mice, intravenous and oral; assay type: in vivo; conditions: both sexes, Kunming, mouse, plasma, po, 50 mg/kg

compound: Nc1ccn([C@@H]2O[C@H](CO)[C@@H](O)C2(F)F)c(=O)n1 [Gemcitabine, gemcitabine, reference compound]
quantity unit: ng·h/mL
AUC(0-t): 4020

====

assay: Pharmacokinetics of SL-01 and SL-02 in mice, intragastric; type: in vivo; settings: both sexes, Kunming, mouse, plasma, po, SL-01 100 mg/kg intragastric, analyte SL-01, read-out: AUC0-t, SL-01 Administration Group
reported property: AUC(0-t)

compound: CCCCCCCCCCCCOC(=O)c1nccnc1C(=O)Nc1ccn([C@@H]2O[C@H](CO)[C@@H](O)C2(F)F)c(=O)n1 [Compound 4]
test value: 1.81 µg·h/mL
